Reference source: PubChem BioAssay (NCI)

We begin with a simple list: items and their reported TGI.
Test system: KM12 colon
Test: NCI tumour cell line growth inhibition, 48 h

A selection of reference data follows.
CCC/C(Cl)=N/OC(=O)Nc1cc(C(F)(F)F)ccc1OC = 33.5 µM
O=C(NC(Cc1ccc(Br)cc1)C(=O)O)c1ccc(I)cc1 (configuration not stated) = > 100 µM
COC(=O)c1cc2oc(/C=C3/SC(=S)N(N)C3=O)cc2n1Cc1ccccc1 = > 29.7 µM
CC1(C)N=C(N)N=C(N)N1c1ccc(Cl)cc1 = > 100 µM
Cc1ccc(NC(=O)CC/C(CC(=O)C(C)(C)C)=N\NC(=O)C[n+]2ccccc2)cc1C = > 100 µM

Value of measured TGI for the entry N#CCC(=O)N/N=C1/C(=O)N(c2cc(Cl)ccc2Cl)C(=O)C(=O)C1c1nc2ccccc2s1 (configuration not stated) : > 100 µM

Value of measured TGI for the entry `CN(C)CC(=O)Nc1ccc2ncnc(Nc3ccc(Oc4cccc(C(F)(F)F)c4)c(Cl)c3)c2c1` : 4 µM

---

Test system: MDA-N
Experiment: NCI tumour cell line growth inhibition, 48 h
MEASUREMENT LABEL: TGI

Value of measured TGI for the entry CCOC(=O)CCC(C(=O)OCC)n1nc2ccc(Nc3c(C)[n+]([O-])c4cc(F)c(OCC)cc4[n+]3[O-])cc2n1 (stereo unspecified) : > 100 µM

Value of measured TGI for the entry `O=[N+]([O-])c1cccc(-c2ncc3c(n2)-c2ccccc2C3)c1` : > 100 µM

Value of measured TGI for the entry `C/C=C(/C)C(=O)O[C@H]1[C@H]2[C@@H]([C@@H](OC(C)=O)[C@H](C)C(=O)[C@@]34C[C@@H](C)C(=O)[C@]3(/C=C(\C)[C@H]1OC(C)=O)O4)C2(C)C` : 4.94 µM

Value of measured TGI for the entry `Cn1c(=O)nc2n(-c3ccc(Cl)cc3)c3cc(Cl)ccc3nc-2c1=O` : 3.09 µM

Value of measured TGI for the entry CCCC1CC(=O)NC(=O)C1C(=O)OC(C)(C)C (stereo unspecified) : > 100 µM

Value of measured TGI for the entry CC(=O)OCC1OC(c2c(OC(C)=O)cc(C)c3c(=O)cc(/C(C(C)=O)=C(\C)O)oc23)C(OC(C)=O)C(OC(C)=O)C1OC(C)=O (stereo unspecified) : > 100 µM

Value of measured TGI for the entry `CC(C)(C)OC(=O)N1C(OP(=O)(Oc2ccccc2)Oc2ccccc2)=CSc2ccccc21` : > 100 µM

---

Test system: OVCAR-8 ovarian
Test: NCI tumour cell line growth inhibition, 48 h
MEASUREMENT LABEL: TGI

A selection of reference data follows.
CNC1c2ccccc2C(=O)c2cc3c(cc21)OCCOCCOCCOCCO3 (stereo not drawn) = > 100 µM
Nc1[nH]c(=S)nc2nc3c(c(-c4ccccc4)c12)CCCC3 = > 100 µM

Shift focus to the following entry.
The compound `COc1cc(/C=N/c2nc3cc4sc(/N=C/c5cc(OC)c(OC)c(OC)c5)nc4cc3s2)cc(OC)c1OC` on OVCAR-8 ovarian: TGI was > 100 µM

---

Tested on: OVCAR-4 ovarian
Assay: NCI tumour cell line growth inhibition, 48 h
MEASUREMENT LABEL: TGI

A selection of reference data follows.
N#CC1=C(N)NC(=S)NC12Nc1ccccc1S2 (stereo not drawn) = > 100 µM
C=C(C)[C@@H]1CCC2=C[C@H](C/C(C)=C\C3=CC(C)=C(O3)[C@H]1O)OC2=O = > 100 µM

Value of measured TGI for the entry CC1=NN(C(=O)Nc2ccc(Cl)cc2)C(=O)C2CCC(=O)N12 (stereo not drawn) : > 100 µM

---

We begin with a simple list: items and their reported TGI.
Tested on: OVCAR-4 ovarian
Experiment: NCI tumour cell line growth inhibition, 48 h

A selection of reference data follows.
CCOC(=O)CC[C@H](NC(=O)N[C@H](C)c1ccccc1)C(=O)OCC = > 100 µM
Clc1cc(Cl)c2cc3cccc[n+]3cc2c1Cl = 30.2 µM
CCCCN1C(=O)c2c(Br)sc(Br)c2C1=O = 91.1 µM

The molecule O=C1OC(C2Cc3ccc4c(c3C2=O)CCC4)c2ccccc21 (stereo not drawn) on OVCAR-4 ovarian: TGI was > 100 µM

The molecule `CSc1nc2nn(Cc3ccccc3)cc2c(=O)[nH]1` on OVCAR-4 ovarian: TGI was > 100 µM

The molecule `O=C(C=P(c1ccccc1)(c1ccccc1)c1ccccc1)CCl` on OVCAR-4 ovarian: TGI was 2.2 µM

The molecule O=C(O)CC(NC(=O)/C(=C/c1ccccc1)NC(=O)c1ccccc1)C(=O)O (stereo not drawn) on OVCAR-4 ovarian: TGI was > 100 µM

The molecule `CN(C)CCCSc1ccccc1NC1=C(Cl)C(=O)C(Nc2ccccc2SCCCN(C)C)=C(Cl)C1=O` on OVCAR-4 ovarian: TGI was 2.56 µM

The molecule `OC[C@H]1NC[C@@H](O)[C@@H](O)[C@H]1O` on OVCAR-4 ovarian: TGI was > 100 µM

The molecule COc1ccc(CCN(CC(=O)N(CC(N)=O)C2CCC[C@@H]2OCc2ccccc2)C(=O)CN(C(=O)CN(CCc2ccc(Cl)cc2)C(=O)CN(C(=O)CN(C)Cc2ccccc2F)[C@H](C)C2CCCCC2)[C@H](C)C2CCCCC2)cc1OC (stereo partly drawn) on OVCAR-4 ovarian: TGI was > 50 µM

The molecule `O=C(O)C1(Cc2ccccc2)Cc2cc3c(cc2C1)CCC3` on OVCAR-4 ovarian: TGI was > 100 µM

The molecule CC(=O)NC(Cc1ccccc1)NC(=O)O (stereo not drawn) on OVCAR-4 ovarian: TGI was > 100 µM

The molecule S=c1c2[nH]cnc2ncn1CCSC1=NC=NC2=NC=NC21 (stereo not drawn) on OVCAR-4 ovarian: TGI was > 100 µM

The molecule `O=c1c2ccccc2c(/C=N\NC2=NCCN2)c2oc3ccccc3n12` on OVCAR-4 ovarian: TGI was 65.7 µM

The molecule Cc1cc(=O)oc2c(CNC(CO)C(=O)O)c(O)ccc12 (stereo not drawn) on OVCAR-4 ovarian: TGI was > 100 µM

The molecule `O=C(Cc1nc2ccccc2o1)C(=O)Nc1cccc(Cl)c1` on OVCAR-4 ovarian: TGI was > 100 µM

The molecule `CCC/C(Cl)=N/OC(=O)Nc1cc(C(F)(F)F)ccc1OC` on OVCAR-4 ovarian: TGI was 9.75 µM

The molecule COc1cc2c(c(O)c1OC)C(=O)[C@@H]1CCC(=O)N1C2c1ccccc1 (stereo partly drawn) on OVCAR-4 ovarian: TGI was > 100 µM

---

Tested on: UACC-257 melanoma
Test: NCI tumour cell line growth inhibition, 48 h
We begin with a simple list: items and their reported TGI.

A selection of reference data follows.
CC(C)(C)C(=O)Nc1cccc2oc(-c3ccccc3)cc12 = > 100 µM
c1ccncc1 = > 100 µM
NC1CCCCC1N.O=C1C=C/C(=C(/c2ccc(O)c(Br)c2)c2ccccc2S(=O)(=O)[O-])C=C1Br.O=C1C=C/C(=C(/c2ccc(O)c(Br)c2)c2ccccc2S(=O)(=O)[O-])C=C1Br.[Pt+4] = > 100 µM
CC(C)[C@@](O)(c1ccc2cc(OC(F)F)c(OC(F)F)cc2c1)c1cn[nH]n1 = 48.5 µM
CCCCCCCCCCCCCCCCCCNc1ccn(C2OC(CO)C(OP(=O)(O)OCC(O)COP(=O)(O)OCC3OC(n4cc(F)c(NCCCCCCCCCCCCCCCCCC)nc4=O)CC3O)C2O)c(=O)n1 (stereo not given) = > 50 µM
O=C(N/C(=C\c1cccc([N+](=O)[O-])c1)c1nc2ccccc2[nH]1)c1ccccc1 = > 100 µM

Shift focus to the following entry.
Value of measured TGI for the entry `O=[N+]([O-])c1cccc(-c2ncc3c(n2)-c2ccccc2C3)c1` : > 100 µM

---

Tested on: MCF7 breast
Experiment: NCI tumour cell line growth inhibition, 48 h
MEASUREMENT LABEL: GI50

A selection of reference data follows.
CN(C)CCCSc1ccccc1NC1=C(Cl)C(=O)C(Nc2ccccc2SCCCN(C)C)=C(Cl)C1=O = 1.65 µM
O=C(O)c1cc(=O)cc(C(=O)O)o1 = > 100 µM
COc1cc(-c2nc3sc(C)cn3c2/C=C2\C(=O)Nc3ccccc32)c(Br)c(OC)c1OC = 5.81 µM
C=C1C(=O)O[C@H]2[C@H](OC(C)=O)[C@@H](C)CCCC3(C)OC3CCC3(CO3)[C@H](O)C[C@@H]12 (stereo not given in full) = 5.02 µM

The compound `COC(=O)[C@]12CC[C@@H](C)[C@H](C)[C@@H]1C1=CC[C@@H]3[C@@]4(C)C[C@@H](OC(=O)/C=C/c5ccccc5)[C@H](O)[C@@](C)(CO)[C@@H]4[C@H](O)C[C@@]3(C)[C@]1(C)CC2` on MCF7 breast: GI50 was 3.12 µM
